- target_desc: Aurora kinase A (Homo sapiens) (UniProt O14965)
- method_summary: Inhibition of purified recombinant full-length Aurora A (unknown origin) assessed as residual enzyme activity at 2 mM using kemptide analogue substrate and 5 mM ATP in presence of TPX2 (1 to 43 residues)
property_measured: Activity
Kindly write the number and append the unit.

As a guide, the following entries are already answered.
compound=CN(C)c1ccc2c(-c3ccc(C(=O)NCCCOCCOCCOCCCNC(=O)[C@@H](Cc4ccc(N=[N+]=[N-])cc4)NC(=O)CCNC(=O)[C@]4(Cc5cccc(Nc6nccs6)n5)CC[C@@H](Oc5cccc(Cl)c5F)CC4)cc3C(=O)O)c3ccc(=[N+](C)C)cc-3oc2c1 property_measured=Activity endpoint_value=73%
compound=N=C(N)NCCC[C@@H](NC(=O)[C@@H](CCCNC(=N)N)NC(=O)[C@@H](CCCNC(=N)N)NC(=O)[C@@H](CCCNC(=N)N)NC(=O)[C@@H](CCCNC(=N)N)NC(=O)[C@@H](CCCNC(=N)N)NC(=O)CCCCCNC(=O)[C@]1(Cc2cccc(Nc3nccs3)n2)CC[C@@H](Oc2cccc(Cl)c2F)CC1)C(N)=O property_measured=Activity endpoint_value=10%
compound="CCN1/C(=C/C=C/C2=[N+](CC)c3ccc(S(=O)(=O)O)cc3C2(C)C)C(C)(CCCC(=O)NCCCC[C@@H](NC(=O)[C@@H](CCCNC(=N)N)NC(=O)[C@@H](CCCNC(=N)N)NC(=O)[C@@H](CCCNC(=N)N)NC(=O)[C@@H](CCCNC(=N)N)NC(=O)[C@@H](CCCNC(=N)N)NC(=O)[C@@H](CCCNC(=N)N)NC(=O)[C@@H](Cc2ccc(C(=O)c3ccccc3)cc2)NC(=O)[C@@H](Cc2ccc(C(=O)c3ccccc3)cc2)NC(=O)CCCNC(=O)[C@]2(Cc3cccc(Nc4nccs4)n3)CC[C@@H](Oc3cccc(Cl)c3F)CC2)C(N)=O)c2cc(S(=O)(=O)O)ccc21 (stereo partly drawn)" property_measured=Activity endpoint_value=110%
compound=CN(C)c1ccc2c(-c3ccc(C(=O)NCCCC[C@H](NC(=O)[C@H](Cc4ccccc4)NC(=O)[C@H](Cc4ccccc4)NC(=O)CCCNC(=O)[C@]4(Cc5cccc(Nc6nccs6)n5)CC[C@@H](Oc5cccc(Cl)c5F)CC4)C(N)=O)cc3C(=O)O)c3ccc(=[N+](C)C)cc-3oc2c1 property_measured=Activity endpoint_value=110%
compound="CCN1/C(=C/C=C/C2=[N+](CC)c3ccc(S(=O)(=O)O)cc3C2(C)C)C(C)(CCCC(=O)NCCCC[C@@H](NC(=O)[C@@H](CCCNC(=N)N)NC(=O)[C@@H](CCCNC(=N)N)NC(=O)[C@@H](CCCNC(=N)N)NC(=O)[C@@H](CCCNC(=N)N)NC(=O)[C@@H](CCCNC(=N)N)NC(=O)[C@@H](CCCNC(=N)N)NC(=O)[C@H](Cc2ccc(N=[N+]=[N-])cc2)NC(=O)[C@H](Cc2ccc(N=[N+]=[N-])cc2)NC(=O)CCNC(=O)[C@]2(Cc3cccc(Nc4nccs4)n3)CC[C@@H](Oc3cccc(Cl)c3F)CC2)C(N)=O)c2cc(S(=O)(=O)O)ccc21 (stereo partly drawn)" property_measured=Activity endpoint_value=71%

Tell me Activity reported for CCN1/C(=C/C=C/C2=[N+](CC)c3ccc(S(=O)(=O)O)cc3C2(C)C)C(C)(CCCC(=O)NCCCC[C@@H](NC(=O)[C@H](CCCNC(=N)N)NC(=O)[C@H](CCCNC(=N)N)NC(=O)[C@H](CCCNC(=N)N)NC(=O)[C@H](CCCNC(=N)N)NC(=O)[C@H](CCCNC(=N)N)NC(=O)[C@H](CCCNC(=N)N)NC(=O)[C@@H](Cc2ccc(N=[N+]=[N-])cc2)NC(=O)[C@@H](Cc2ccc(N=[N+]=[N-])cc2)NC(=O)CCNC(=O)[C@]2(Cc3cccc(Nc4nccs4)n3)CC[C@@H](Oc3cccc(Cl)c3F)CC2)C(N)=O)c2cc(S(=O)(=O)O)ccc21 (stereo partly drawn)
74%

Tell me Activity reported for CCN1/C(=C/C=C/C2=[N+](CC)c3ccc(S(=O)(=O)O)cc3C2(C)C)C(C)(CCCC(=O)NCCCC[C@@H](NC(=O)[C@H](CCCNC(=N)N)NC(=O)[C@H](CCCNC(=N)N)NC(=O)[C@H](CCCNC(=N)N)NC(=O)[C@H](CCCNC(=N)N)NC(=O)[C@H](CCCNC(=N)N)NC(=O)[C@H](CCCNC(=N)N)NC(=O)[C@H](Cc2ccc(C(=O)c3ccccc3)cc2)NC(=O)[C@H](Cc2ccc(C(=O)c3ccccc3)cc2)NC(=O)CCCNC(=O)[C@]2(Cc3cccc(Nc4nccs4)n3)CC[C@@H](Oc3cccc(Cl)c3F)CC2)C(N)=O)c2cc(S(=O)(=O)O)ccc21 (stereo partly drawn)
100%

Tell me Activity reported for "CN(C)c1ccc2c(-c3ccc(C(=O)NCCCC[C@H](NC(=O)[C@H](Cc4ccc(N=[N+]=[N-])cc4)NC(=O)[C@H](Cc4ccc(N=[N+]=[N-])cc4)NC(=O)CCCNC(=O)[C@]4(Cc5cccc(Nc6nccs6)n5)CC[C@@H](Oc5cccc(Cl)c5F)CC4)C(N)=O)cc3C(=O)O)c3ccc(=[N+](C)C)cc-3oc2c1"
100%

----------
- target_desc: Aurora kinase A (Homo sapiens) (UniProt O14965)
- method_summary: Binding affinity to Aurora A in human HeLa cells assessed as covalent irreversible complex formation at 1 uM irradiated for 15 mins with near-UV light by SDS-PAGE and Western blot method
- Assay type: cell-based
Calls of active or inactive are those of the source. The calls are words filed in the database; no cut-off is given here.
property_measured: Activity

compound="CCN1/C(=C/C=C/C2=[N+](CC)c3ccc(S(=O)(=O)O)cc3C2(C)C)C(C)(CCCC(=O)NCCCC[C@@H](NC(=O)[C@H](CCCNC(=N)N)NC(=O)[C@H](CCCNC(=N)N)NC(=O)[C@H](CCCNC(=N)N)NC(=O)[C@H](CCCNC(=N)N)NC(=O)[C@H](CCCNC(=N)N)NC(=O)[C@H](CCCNC(=N)N)NC(=O)[C@@H](Cc2ccc(N=[N+]=[N-])cc2)NC(=O)[C@@H](Cc2ccc(N=[N+]=[N-])cc2)NC(=O)CCNC(=O)[C@]2(Cc3cccc(Nc4nccs4)n3)CC[C@@H](Oc3cccc(Cl)c3F)CC2)C(N)=O)c2cc(S(=O)(=O)O)ccc21 (some centres undefined)" property_measured=Activity endpoint_value=Active
compound=CN(C)c1ccc2c(-c3ccc(C(=O)NCCCC[C@H](NC(=O)[C@H](Cc4ccc(C(=O)c5ccccc5)cc4)NC(=O)[C@H](Cc4ccc(C(=O)c5ccccc5)cc4)NC(=O)CCCNC(=O)[C@]4(Cc5cccc(Nc6nccs6)n5)CC[C@@H](Oc5cccc(Cl)c5F)CC4)C(N)=O)cc3C(=O)O)c3ccc(=[N+](C)C)cc-3oc2c1 property_measured=Activity endpoint_value=Active
compound=CN(C)c1ccc2c(-c3ccc(C(=O)NCCCC[C@H](NC(=O)[C@H](Cc4ccc(N=[N+]=[N-])cc4)NC(=O)[C@H](Cc4ccc(N=[N+]=[N-])cc4)NC(=O)CCCNC(=O)[C@]4(Cc5cccc(Nc6nccs6)n5)CC[C@@H](Oc5cccc(Cl)c5F)CC4)C(N)=O)cc3C(=O)O)c3ccc(=[N+](C)C)cc-3oc2c1 property_measured=Activity endpoint_value=Active
compound="CCN1/C(=C/C=C/C2=[N+](CC)c3ccc(S(=O)(=O)O)cc3C2(C)C)C(C)(CCCC(=O)NCCCC[C@@H](NC(=O)[C@@H](CCCNC(=N)N)NC(=O)[C@@H](CCCNC(=N)N)NC(=O)[C@@H](CCCNC(=N)N)NC(=O)[C@@H](CCCNC(=N)N)NC(=O)[C@@H](CCCNC(=N)N)NC(=O)[C@@H](CCCNC(=N)N)NC(=O)[C@H](Cc2ccc(N=[N+]=[N-])cc2)NC(=O)[C@H](Cc2ccc(N=[N+]=[N-])cc2)NC(=O)CCNC(=O)[C@]2(Cc3cccc(Nc4nccs4)n3)CC[C@@H](Oc3cccc(Cl)c3F)CC2)C(N)=O)c2cc(S(=O)(=O)O)ccc21 (some centres undefined)" property_measured=Activity endpoint_value=Active

----------
- target_desc: UniProt O14965
- Sequence (whole entry): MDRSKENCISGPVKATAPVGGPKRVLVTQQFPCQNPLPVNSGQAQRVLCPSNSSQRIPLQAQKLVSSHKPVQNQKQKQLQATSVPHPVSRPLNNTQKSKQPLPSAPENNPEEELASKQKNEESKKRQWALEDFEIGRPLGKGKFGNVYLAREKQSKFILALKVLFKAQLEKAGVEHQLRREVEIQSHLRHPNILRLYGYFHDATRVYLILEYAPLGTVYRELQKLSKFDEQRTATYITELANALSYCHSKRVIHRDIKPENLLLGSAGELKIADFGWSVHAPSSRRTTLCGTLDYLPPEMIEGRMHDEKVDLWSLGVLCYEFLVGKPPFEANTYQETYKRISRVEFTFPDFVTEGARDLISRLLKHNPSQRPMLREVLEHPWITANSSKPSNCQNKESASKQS
- method_summary: Binding affinity to purified recombinant full-length Aurora A (unknown origin) assessed as covalent irreversible complex formation at 2.4 uM irradiated for 15 mins with near-UV light by SDS-PAGE and Western blot method
property_measured: Activity

compound="CCN1/C(=C/C=C/C2=[N+](CC)c3ccc(S(=O)(=O)O)cc3C2(C)C)C(C)(CCCC(=O)NCCCC[C@@H](NC(=O)[C@@H](CCCNC(=N)N)NC(=O)[C@@H](CCCNC(=N)N)NC(=O)[C@@H](CCCNC(=N)N)NC(=O)[C@@H](CCCNC(=N)N)NC(=O)[C@@H](CCCNC(=N)N)NC(=O)[C@@H](CCCNC(=N)N)NC(=O)[C@H](Cc2ccc(N=[N+]=[N-])cc2)NC(=O)[C@H](Cc2ccc(N=[N+]=[N-])cc2)NC(=O)CCNC(=O)[C@]2(Cc3cccc(Nc4nccs4)n3)CC[C@@H](Oc3cccc(Cl)c3F)CC2)C(N)=O)c2cc(S(=O)(=O)O)ccc21 (some centres undefined)" property_measured=Activity endpoint_value=18%
compound=CN(C)c1ccc2c(-c3ccc(C(=O)NCCCC[C@H](NC(=O)[C@H](Cc4ccc(N=[N+]=[N-])cc4)NC(=O)[C@H](Cc4ccc(N=[N+]=[N-])cc4)NC(=O)CCCNC(=O)[C@]4(Cc5cccc(Nc6nccs6)n5)CC[C@@H](Oc5cccc(Cl)c5F)CC4)C(N)=O)cc3C(=O)O)c3ccc(=[N+](C)C)cc-3oc2c1 property_measured=Activity endpoint_value=40%
compound="CCN1/C(=C/C=C/C2=[N+](CC)c3ccc(S(=O)(=O)O)cc3C2(C)C)C(C)(CCCC(=O)NCCCC[C@@H](NC(=O)[C@H](CCCNC(=N)N)NC(=O)[C@H](CCCNC(=N)N)NC(=O)[C@H](CCCNC(=N)N)NC(=O)[C@H](CCCNC(=N)N)NC(=O)[C@H](CCCNC(=N)N)NC(=O)[C@H](CCCNC(=N)N)NC(=O)[C@@H](Cc2ccc(N=[N+]=[N-])cc2)NC(=O)[C@@H](Cc2ccc(N=[N+]=[N-])cc2)NC(=O)CCNC(=O)[C@]2(Cc3cccc(Nc4nccs4)n3)CC[C@@H](Oc3cccc(Cl)c3F)CC2)C(N)=O)c2cc(S(=O)(=O)O)ccc21 (some centres undefined)" property_measured=Activity endpoint_value=15%

From here, focus on the item given below.
Tell me Activity reported for CCN1/C(=C/C=C/C2=[N+](CC)c3ccc(S(=O)(=O)O)cc3C2(C)C)C(C)(CCCC(=O)NCCCC[C@@H](NC(=O)[C@@H](CCCNC(=N)N)NC(=O)[C@@H](CCCNC(=N)N)NC(=O)[C@@H](CCCNC(=N)N)NC(=O)[C@@H](CCCNC(=N)N)NC(=O)[C@@H](CCCNC(=N)N)NC(=O)[C@@H](CCCNC(=N)N)NC(=O)[C@@H](Cc2ccc(C(=O)c3ccccc3)cc2)NC(=O)[C@@H](Cc2ccc(C(=O)c3ccccc3)cc2)NC(=O)CCCNC(=O)[C@]2(Cc3cccc(Nc4nccs4)n3)CC[C@@H](Oc3cccc(Cl)c3F)CC2)C(N)=O)c2cc(S(=O)(=O)O)ccc21 (some centres undefined)
6.9%

The values you see were collected from ChEMBL document CHEMBL3600360.
